Sourced from BigSolDB 2.1

- EXPERIMENTAL_CONDITIONS: in n-propyl acetate, 298.15 K

{"SMILES_NOTATION": "COc1cc2c(cc1OC)C(=O)CC2", "solubility (mole fraction)": 0.0596}

====

- EXPERIMENTAL_CONDITIONS: in isopropyl acetate, 313.15 K
PROPERTY: solubility (mole fraction)

{"SMILES_NOTATION": "COc1cc2c(cc1OC)C(=O)CC2", "PROPERTY": "solubility (mole fraction)", "ASSAY_VALUE": 0.0801}

====

- EXPERIMENTAL_CONDITIONS: in sec-butanol, 288.15 K
PROPERTY: solubility (mole fraction)

{"SMILES_NOTATION": "COc1cc2c(cc1OC)C(=O)CC2", "PROPERTY": "solubility (mole fraction)", "ASSAY_VALUE": 0.0147}

====

- EXPERIMENTAL_CONDITIONS: in ethanol, 323.15 K

{"SMILES_NOTATION": "COc1cc2c(cc1OC)C(=O)CC2", "solubility (mole fraction)": 0.0636}

====

- EXPERIMENTAL_CONDITIONS: in ethyl acetate, 308.15 K

{"SMILES_NOTATION": "COc1cc2c(cc1OC)C(=O)CC2", "solubility (mole fraction)": 0.101}

====

- EXPERIMENTAL_CONDITIONS: in 2-butanone, 283.15 K

{"SMILES_NOTATION": "COc1cc2c(cc1OC)C(=O)CC2", "solubility (mole fraction)": 0.0514}

====

- EXPERIMENTAL_CONDITIONS: in ethyl acetate, 323.15 K
PROPERTY: solubility (mole fraction)

{"SMILES_NOTATION": "COc1cc2c(cc1OC)C(=O)CC2", "ASSAY_VALUE": 0.171}

====

- EXPERIMENTAL_CONDITIONS: in acetone, 303.15 K

{"SMILES_NOTATION": "COc1cc2c(cc1OC)C(=O)CC2", "solubility (mole fraction)": 0.101}

====

- EXPERIMENTAL_CONDITIONS: in isopropyl acetate, 298.15 K
PROPERTY: solubility (mole fraction)

{"SMILES_NOTATION": "COc1cc2c(cc1OC)C(=O)CC2", "ASSAY_VALUE": 0.0485}

====

- EXPERIMENTAL_CONDITIONS: in n-butanol, 323.15 K
PROPERTY: solubility (mole fraction)

{"SMILES_NOTATION": "COc1cc2c(cc1OC)C(=O)CC2", "ASSAY_VALUE": 0.0925}

====

- EXPERIMENTAL_CONDITIONS: in isopropanol, 318.15 K
PROPERTY: solubility (mole fraction)

{"SMILES_NOTATION": "COc1cc2c(cc1OC)C(=O)CC2", "PROPERTY": "solubility (mole fraction)", "ASSAY_VALUE": 0.0455}

====

- EXPERIMENTAL_CONDITIONS: in n-propyl acetate, 308.15 K
PROPERTY: solubility (mole fraction)

{"SMILES_NOTATION": "COc1cc2c(cc1OC)C(=O)CC2", "ASSAY_VALUE": 0.0821}

====

- EXPERIMENTAL_CONDITIONS: in sec-butanol, 318.15 K
PROPERTY: solubility (mole fraction)

{"SMILES_NOTATION": "COc1cc2c(cc1OC)C(=O)CC2", "ASSAY_VALUE": 0.0766}

====

- EXPERIMENTAL_CONDITIONS: in acetone, 323.15 K

{"SMILES_NOTATION": "COc1cc2c(cc1OC)C(=O)CC2", "solubility (mole fraction)": 0.2}

====

- EXPERIMENTAL_CONDITIONS: in isopropyl acetate, 308.15 K

{"SMILES_NOTATION": "COc1cc2c(cc1OC)C(=O)CC2", "solubility (mole fraction)": 0.0691}

====

- EXPERIMENTAL_CONDITIONS: in n-propanol, 313.15 K

{"SMILES_NOTATION": "COc1cc2c(cc1OC)C(=O)CC2", "solubility (mole fraction)": 0.0457}

====

- EXPERIMENTAL_CONDITIONS: in ethanol, 283.15 K
PROPERTY: solubility (mole fraction)

{"SMILES_NOTATION": "COc1cc2c(cc1OC)C(=O)CC2", "ASSAY_VALUE": 0.00826}

====

- EXPERIMENTAL_CONDITIONS: in sec-butanol, 308.15 K

{"SMILES_NOTATION": "COc1cc2c(cc1OC)C(=O)CC2", "solubility (mole fraction)": 0.0461}

====

- EXPERIMENTAL_CONDITIONS: in n-pentanol, 303.15 K
PROPERTY: solubility (mole fraction)

{"SMILES_NOTATION": "COc1cc2c(cc1OC)C(=O)CC2", "ASSAY_VALUE": 0.0386}

====

- EXPERIMENTAL_CONDITIONS: in isopropanol, 303.15 K

{"SMILES_NOTATION": "COc1cc2c(cc1OC)C(=O)CC2", "solubility (mole fraction)": 0.0198}

====

- EXPERIMENTAL_CONDITIONS: in acetone, 288.15 K

{"SMILES_NOTATION": "COc1cc2c(cc1OC)C(=O)CC2", "solubility (mole fraction)": 0.0596}

====

- EXPERIMENTAL_CONDITIONS: in n-pentanol, 318.15 K

{"SMILES_NOTATION": "COc1cc2c(cc1OC)C(=O)CC2", "solubility (mole fraction)": 0.0827}

====

- EXPERIMENTAL_CONDITIONS: in 2-butanone, 288.15 K
PROPERTY: solubility (mole fraction)

{"SMILES_NOTATION": "COc1cc2c(cc1OC)C(=O)CC2", "PROPERTY": "solubility (mole fraction)", "ASSAY_VALUE": 0.0623}

====

- EXPERIMENTAL_CONDITIONS: in sec-butanol, 283.15 K

{"SMILES_NOTATION": "COc1cc2c(cc1OC)C(=O)CC2", "solubility (mole fraction)": 0.0105}

====

- EXPERIMENTAL_CONDITIONS: in ethanol, 303.15 K
PROPERTY: solubility (mole fraction)

{"SMILES_NOTATION": "COc1cc2c(cc1OC)C(=O)CC2", "ASSAY_VALUE": 0.0242}

====

- EXPERIMENTAL_CONDITIONS: in n-butanol, 318.15 K

{"SMILES_NOTATION": "COc1cc2c(cc1OC)C(=O)CC2", "solubility (mole fraction)": 0.0739}

====

- EXPERIMENTAL_CONDITIONS: in ethyl acetate, 313.15 K

{"SMILES_NOTATION": "COc1cc2c(cc1OC)C(=O)CC2", "solubility (mole fraction)": 0.122}

====

- EXPERIMENTAL_CONDITIONS: in sec-butanol, 293.15 K

{"SMILES_NOTATION": "COc1cc2c(cc1OC)C(=O)CC2", "solubility (mole fraction)": 0.0199}

====

- EXPERIMENTAL_CONDITIONS: in n-propanol, 303.15 K

{"SMILES_NOTATION": "COc1cc2c(cc1OC)C(=O)CC2", "solubility (mole fraction)": 0.0281}

====

- EXPERIMENTAL_CONDITIONS: in n-butanol, 313.15 K
PROPERTY: solubility (mole fraction)

{"SMILES_NOTATION": "COc1cc2c(cc1OC)C(=O)CC2", "ASSAY_VALUE": 0.0583}

====

- EXPERIMENTAL_CONDITIONS: in sec-butanol, 323.15 K

{"SMILES_NOTATION": "COc1cc2c(cc1OC)C(=O)CC2", "solubility (mole fraction)": 0.0943}

====

- EXPERIMENTAL_CONDITIONS: in ethyl acetate, 298.15 K

{"SMILES_NOTATION": "COc1cc2c(cc1OC)C(=O)CC2", "solubility (mole fraction)": 0.0697}

====

- EXPERIMENTAL_CONDITIONS: in 2-butanone, 323.15 K

{"SMILES_NOTATION": "COc1cc2c(cc1OC)C(=O)CC2", "solubility (mole fraction)": 0.208}

====

- EXPERIMENTAL_CONDITIONS: in isopropanol, 323.15 K

{"SMILES_NOTATION": "COc1cc2c(cc1OC)C(=O)CC2", "solubility (mole fraction)": 0.0588}

====

- EXPERIMENTAL_CONDITIONS: in n-butanol, 288.15 K

{"SMILES_NOTATION": "COc1cc2c(cc1OC)C(=O)CC2", "solubility (mole fraction)": 0.0155}

====

- EXPERIMENTAL_CONDITIONS: in n-butanol, 293.15 K
PROPERTY: solubility (mole fraction)

{"SMILES_NOTATION": "COc1cc2c(cc1OC)C(=O)CC2", "ASSAY_VALUE": 0.02}
